# Lookup of reported Residual activity [%] keyed by entry
- MEASURED_TARGET: T1, VLP2 (virus-like particles of AAV2) (AAV2, UniProt P03135 1-735; P03135 1-598; P03135 1-533)
- T1 construct: Empty AAV2 capsid; background says about 60 protein molecules, VP1:VP2:VP3 = 1:1:10; Immobilised on the ELISA plate
- T1 sequence (P03135 whole entry, chain 1 of 3): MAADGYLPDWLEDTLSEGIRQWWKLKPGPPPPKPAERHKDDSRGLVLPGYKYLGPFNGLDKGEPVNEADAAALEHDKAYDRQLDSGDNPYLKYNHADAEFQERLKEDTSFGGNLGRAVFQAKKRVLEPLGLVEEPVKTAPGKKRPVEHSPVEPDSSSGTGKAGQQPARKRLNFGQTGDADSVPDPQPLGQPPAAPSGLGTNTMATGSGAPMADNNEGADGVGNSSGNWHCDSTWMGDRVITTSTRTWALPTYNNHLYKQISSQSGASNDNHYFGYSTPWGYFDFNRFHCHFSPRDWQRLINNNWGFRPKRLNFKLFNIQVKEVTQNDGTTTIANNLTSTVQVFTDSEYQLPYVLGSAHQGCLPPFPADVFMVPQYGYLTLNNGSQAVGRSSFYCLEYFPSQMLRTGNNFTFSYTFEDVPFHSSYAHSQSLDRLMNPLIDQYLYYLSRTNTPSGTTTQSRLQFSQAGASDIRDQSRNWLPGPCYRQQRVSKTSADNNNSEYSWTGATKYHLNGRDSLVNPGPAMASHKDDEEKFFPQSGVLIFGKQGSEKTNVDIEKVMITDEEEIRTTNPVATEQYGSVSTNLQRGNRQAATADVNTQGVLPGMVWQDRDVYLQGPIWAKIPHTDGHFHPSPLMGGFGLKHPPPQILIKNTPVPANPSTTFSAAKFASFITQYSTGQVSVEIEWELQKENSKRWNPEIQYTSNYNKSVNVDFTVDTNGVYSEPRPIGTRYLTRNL
- T1 sequence (P03135 139-735, tags left off, chain 2 of 3): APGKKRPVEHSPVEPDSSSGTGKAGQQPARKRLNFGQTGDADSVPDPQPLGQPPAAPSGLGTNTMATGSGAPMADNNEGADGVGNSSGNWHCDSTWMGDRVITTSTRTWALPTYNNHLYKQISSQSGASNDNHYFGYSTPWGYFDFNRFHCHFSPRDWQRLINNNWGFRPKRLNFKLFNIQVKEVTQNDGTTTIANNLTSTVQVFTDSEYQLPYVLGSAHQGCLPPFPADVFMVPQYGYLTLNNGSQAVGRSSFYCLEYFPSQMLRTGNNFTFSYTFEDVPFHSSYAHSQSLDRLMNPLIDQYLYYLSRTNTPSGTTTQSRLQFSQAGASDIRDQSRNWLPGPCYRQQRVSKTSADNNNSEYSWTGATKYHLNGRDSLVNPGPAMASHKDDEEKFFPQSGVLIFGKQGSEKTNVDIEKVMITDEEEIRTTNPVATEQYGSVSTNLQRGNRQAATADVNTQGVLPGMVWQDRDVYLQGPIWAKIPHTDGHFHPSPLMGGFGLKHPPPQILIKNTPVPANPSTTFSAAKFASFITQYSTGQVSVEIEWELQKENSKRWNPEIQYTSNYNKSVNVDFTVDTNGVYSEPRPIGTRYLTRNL
- T1 sequence (P03135 203-735, chain 3 of 3): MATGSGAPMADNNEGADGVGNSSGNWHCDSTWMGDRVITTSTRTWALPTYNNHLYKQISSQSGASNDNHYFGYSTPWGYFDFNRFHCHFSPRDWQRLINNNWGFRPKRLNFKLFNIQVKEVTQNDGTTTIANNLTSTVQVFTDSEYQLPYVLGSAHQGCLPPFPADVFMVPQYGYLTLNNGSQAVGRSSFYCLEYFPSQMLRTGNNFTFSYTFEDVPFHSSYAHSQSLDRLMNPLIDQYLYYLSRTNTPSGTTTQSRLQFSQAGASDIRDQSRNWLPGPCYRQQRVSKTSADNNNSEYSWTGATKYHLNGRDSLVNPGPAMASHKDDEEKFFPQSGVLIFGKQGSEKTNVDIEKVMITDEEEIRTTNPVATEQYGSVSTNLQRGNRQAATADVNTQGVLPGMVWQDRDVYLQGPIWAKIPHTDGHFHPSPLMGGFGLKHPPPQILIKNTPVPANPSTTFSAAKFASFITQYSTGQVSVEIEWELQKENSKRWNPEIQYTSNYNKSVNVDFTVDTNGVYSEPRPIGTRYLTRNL
- EXPERIMENT_SUMMARY: ELISA on VLP2; binding after pH 3.0 61.0°C 15 min / untreated
PROPERTY_LABEL: Residual activity [%] (%)

{"BINDER": "AAV-binding protein No. 100 (AVR5e + Asn324Asp, Lys362Glu, Val499Glu) (receptor) MGSAGESVQITLPKDEVQLNAYVLQEPPKGETCTYDWQLITHPRDYSGEMEGEHSQILKLSKLTPGLYEFKVIVEGQNAHSEGYVNVTVEPEPRKNRPPIAIVSPQFQEISLPTTSTVIDGSQSTDDDKIVQYHWEELKGPLREEKISEDTAILKLSKLVPGNYTFRLTVVDSDGATDSTTANLTVNKAEDHHHHHH", "REPORTED_RESULT": 50.1}
{"BINDER": "AVR5e (Tyr342Cys, Gly390Ser, Lys399Glu, Ser476Arg, Asn487Asp) (receptor) MGSAGESVQITLPKNEVQLNAYVLQEPPKGETCTYDWQLITHPRDYSGEMEGKHSQILKLSKLTPGLYEFKVIVEGQNAHSEGYVNVTVEPEPRKNRPPIAIVSPQFQEISLPTTSTVIDGSQSTDDDKIVQYHWEELKGPLREEKISEDTAILKLSKLVPGNYTFRLTVVDSDGATDSTTANLTVNKAVDHHHHHH", "REPORTED_RESULT": 25.5}
{"BINDER": "AVR7a (AAV-binding protein No. 93; AVR5e + Asn324Asp, Lys362Glu) (receptor) MGSAGESVQITLPKDEVQLNAYVLQEPPKGETCTYDWQLITHPRDYSGEMEGEHSQILKLSKLTPGLYEFKVIVEGQNAHSEGYVNVTVEPEPRKNRPPIAIVSPQFQEISLPTTSTVIDGSQSTDDDKIVQYHWEELKGPLREEKISEDTAILKLSKLVPGNYTFRLTVVDSDGATDSTTANLTVNKAVDHHHHHH", "REPORTED_RESULT": 50.7}
{"BINDER": "AAV-binding protein No. 87 (AVR5e + Lys371Asn) (receptor) MGSAGESVQITLPKNEVQLNAYVLQEPPKGETCTYDWQLITHPRDYSGEMEGKHSQILKLSNLTPGLYEFKVIVEGQNAHSEGYVNVTVEPEPRKNRPPIAIVSPQFQEISLPTTSTVIDGSQSTDDDKIVQYHWEELKGPLREEKISEDTAILKLSKLVPGNYTFRLTVVDSDGATDSTTANLTVNKAVDHHHHHH", "REPORTED_RESULT": 56.5}
{"BINDER": "AAV-binding protein No. 88 (AVR5e + Leu376Pro) (receptor) MGSAGESVQITLPKNEVQLNAYVLQEPPKGETCTYDWQLITHPRDYSGEMEGKHSQILKLSKLTPGPYEFKVIVEGQNAHSEGYVNVTVEPEPRKNRPPIAIVSPQFQEISLPTTSTVIDGSQSTDDDKIVQYHWEELKGPLREEKISEDTAILKLSKLVPGNYTFRLTVVDSDGATDSTTANLTVNKAVDHHHHHH", "REPORTED_RESULT": 41.7}
{"BINDER": "AAV-binding protein No. 97 (AVR5e + Val332Ala, Lys371Glu) (receptor) MGSAGESVQITLPKNEVQLNAYALQEPPKGETCTYDWQLITHPRDYSGEMEGKHSQILKLSELTPGLYEFKVIVEGQNAHSEGYVNVTVEPEPRKNRPPIAIVSPQFQEISLPTTSTVIDGSQSTDDDKIVQYHWEELKGPLREEKISEDTAILKLSKLVPGNYTFRLTVVDSDGATDSTTANLTVNKAVDHHHHHH", "REPORTED_RESULT": 49.6}
{"BINDER": "AAV-binding protein No. 102 (AVR5e + Leu328Pro, Lys362Asn, Thr397Ser, Arg406His) (receptor) MGSAGESVQITLPKNEVQPNAYVLQEPPKGETCTYDWQLITHPRDYSGEMEGNHSQILKLSKLTPGLYEFKVIVEGQNAHSEGYVNVSVEPEPRKNHPPIAIVSPQFQEISLPTTSTVIDGSQSTDDDKIVQYHWEELKGPLREEKISEDTAILKLSKLVPGNYTFRLTVVDSDGATDSTTANLTVNKAVDHHHHHH", "REPORTED_RESULT": 41.1}
{"BINDER": "AAV-binding protein No. 98 (AVR5e + Leu376Pro, Asn492Asp) (receptor) MGSAGESVQITLPKNEVQLNAYVLQEPPKGETCTYDWQLITHPRDYSGEMEGKHSQILKLSKLTPGPYEFKVIVEGQNAHSEGYVNVTVEPEPRKNRPPIAIVSPQFQEISLPTTSTVIDGSQSTDDDKIVQYHWEELKGPLREEKISEDTAILKLSKLVPGNYTFRLTVVDSDGATDSTTADLTVNKAVDHHHHHH", "REPORTED_RESULT": 47.6}
{"BINDER": "AAV-binding protein No. 90 (AVR5e + Gly392Cys) (receptor) MGSAGESVQITLPKNEVQLNAYVLQEPPKGETCTYDWQLITHPRDYSGEMEGKHSQILKLSKLTPGLYEFKVIVEGQNAHSECYVNVTVEPEPRKNRPPIAIVSPQFQEISLPTTSTVIDGSQSTDDDKIVQYHWEELKGPLREEKISEDTAILKLSKLVPGNYTFRLTVVDSDGATDSTTANLTVNKAVDHHHHHH", "REPORTED_RESULT": 53.3}
{"BINDER": "AAV-binding protein No. 86 (AVR5e + Lys371Glu) (receptor) MGSAGESVQITLPKNEVQLNAYVLQEPPKGETCTYDWQLITHPRDYSGEMEGKHSQILKLSELTPGLYEFKVIVEGQNAHSEGYVNVTVEPEPRKNRPPIAIVSPQFQEISLPTTSTVIDGSQSTDDDKIVQYHWEELKGPLREEKISEDTAILKLSKLVPGNYTFRLTVVDSDGATDSTTANLTVNKAVDHHHHHH", "REPORTED_RESULT": 41.6}
{"BINDER": "AAV-binding protein No. 89 (AVR5e + Glu378Gly) (receptor) MGSAGESVQITLPKNEVQLNAYVLQEPPKGETCTYDWQLITHPRDYSGEMEGKHSQILKLSKLTPGLYGFKVIVEGQNAHSEGYVNVTVEPEPRKNRPPIAIVSPQFQEISLPTTSTVIDGSQSTDDDKIVQYHWEELKGPLREEKISEDTAILKLSKLVPGNYTFRLTVVDSDGATDSTTANLTVNKAVDHHHHHH", "REPORTED_RESULT": 46.1}
